Provide the reported Wild-Type Kin of each item.
details: male, CF-1, mouse, in vivo, 1 µM, pH 7.4
Numeric only. Scale: mL/100g/min

# compound CC(C)(C)c1ccc(C(O)CCCN2CCC(C(O)(c3ccccc3)c3ccccc3)CC2)cc1 (stereo not shown) ; its Wild-Type Kin = 126

Briefly, Wild-Type Kin measured for O=C1CC2(CCCC2)CC(=O)N1CCCCN1CCN(c2ncccn2)CC1 : 325

Form: compound = CN(C)CCCN1c2ccccc2Sc2ccc(Cl)cc21 ; Wild-Type Kin = 300

Lookup result for CC(C)(C)NC(=O)[C@@H]1CN(Cc2cccnc2)CCN1C[C@@H](O)C[C@@H](Cc1ccccc1)C(=O)N[C@H]1c2ccccc2C[C@H]1O ; measured Wild-Type Kin: 0.52

Documented Wild-Type Kin of CN1CCN(C2=Nc3cc(Cl)ccc3Nc3ccccc32)CC1 : 118

The recorded Wild-Type Kin for NC(=O)N1c2ccccc2C=Cc2ccccc21 [carbamazepine] is 173

Item: CN(C)CCC=C1c2ccccc2CCc2ccccc21 | Wild-Type Kin: 335

The compound listed as COc1ccc(CCN2CCC(Nc3nc4ccccc4n3Cc3ccc(F)cc3)CC2)cc1 shows Wild-Type Kin equal to 112

Reported Wild-Type Kin for CC(C)(C)NC(=O)[C@@H]1C[C@@H]2CCCC[C@@H]2CN1C[C@@H](O)[C@H](Cc1ccccc1)NC(=O)[C@H](CC(N)=O)NC(=O)c1ccc2ccccc2n1 was 2.9

The measured Wild-Type Kin associated with CCCN(CCC)S(=O)(=O)c1ccc(C(=O)O)cc1 reads 0.069

These measurements were taken from paper PMC2747801.
